Known PBM binding z-score of a selection of sequences
Test system: VDR:RXRa (NR concentration 270 nM, RXRa partner concentration 90 nM)
procedure_details: PBM binding z-score (relative to random genomic background probes); higher = stronger binding; sequences stand for … in GC…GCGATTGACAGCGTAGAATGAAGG
reported_endpoint: PBM binding z-score

- monomer_sequence: "ATCTCTAGGTAACCAAGTTCAGGGAATGCCGAAC"
  reported_endpoint: "PBM binding z-score"
  measured_value: 3.85
- monomer_sequence: "GCTTGTAGATCAAGGTGAAGAAAGACTAAGCTAA"
  reported_endpoint: "PBM binding z-score"
  measured_value: -0.394
- monomer_sequence: "CCTGGCAGGCCAATCTGGGTCACTCAAGGCTTGA"
  reported_endpoint: "PBM binding z-score"
  measured_value: 0.406
- monomer_sequence: "TCTAGCAGGCCAGAGGGTCACCCAAGAGGTACGG"
  reported_endpoint: "PBM binding z-score"
  measured_value: 1.71
- monomer_sequence: "TCACATAGGTAAAAGGTGAAAGTCGGTGTGGTAA"
  reported_endpoint: "PBM binding z-score"
  measured_value: 1.8
- monomer_sequence: "ATATATAGGTTATCGGGTCATTCAGTTTGCGCAT"
  reported_endpoint: "PBM binding z-score"
  measured_value: 5.37
- monomer_sequence: "TCTCGGAGGACACGAAAGGTCAGCGCTCGACATC"
  reported_endpoint: "PBM binding z-score"
  measured_value: 3.67
- monomer_sequence: "CGTCCAAGGTCAGCAAGTCAGTGAAAGCGACGTG"
  reported_endpoint: "PBM binding z-score"
  measured_value: 2.93
- monomer_sequence: "ATCTCTAGGTAACACGTTCAGTGAAAGAGAGGAC"
  reported_endpoint: "PBM binding z-score"
  measured_value: 0.339
- monomer_sequence: "CGAACTAGGTCATCCAGGACAGCGAATACATTGA"
  reported_endpoint: "PBM binding z-score"
  measured_value: 4.63
- monomer_sequence: "AGTCAATGTTCATCTAGGTAACGTAAGATATGCT"
  reported_endpoint: "PBM binding z-score"
  measured_value: -0.275
- monomer_sequence: "CCCACTGGGCCACGAAAGGTCATTGATTCAGTGA"
  reported_endpoint: "PBM binding z-score"
  measured_value: 4.18
- monomer_sequence: "TCGAGTAGGTTAGGGGCAGTCAGAATGGCGTCGA"
  reported_endpoint: "PBM binding z-score"
  measured_value: 0.0468
- monomer_sequence: "ATATGTAGGTTAGCTGTGGTCATTCAGACTAGGC"
  reported_endpoint: "PBM binding z-score"
  measured_value: 0.859
- monomer_sequence: "AGAATTAGGTTATACGTAGATCAGGGAAGAAAGT"
  reported_endpoint: "PBM binding z-score"
  measured_value: 0.22
- monomer_sequence: "ATATGTAGGTTACGGGTCATTCAGGTTGGTTCGC"
  reported_endpoint: "PBM binding z-score"
  measured_value: 4.76
- monomer_sequence: "CCGACTGGGGCATAAGGTCACCATAAGCCAGCCC"
  reported_endpoint: "PBM binding z-score"
  measured_value: 3.15
- monomer_sequence: "GTACCAAGGTGCATAGGTCGTTGATGAGTAGGCG"
  reported_endpoint: "PBM binding z-score"
  measured_value: 0.717
- monomer_sequence: "CCGACTGGGGCAAGGTTACCGTAACGCACAGCCA"
  reported_endpoint: "PBM binding z-score"
  measured_value: -0.0549
- monomer_sequence: "GCAGACAGGTGCAACGCAGGTAACTCAGGGTGGC"
  reported_endpoint: "PBM binding z-score"
  measured_value: -0.467
